Reference source for all entries: the supplement of paper PMC10307832

# System: NCI-H441
# testName: relative viability (nuclei count vs DMSO), 5 days (fraction); higher = more cells survive
# testConditions: first compound 0.0002 µM
Give measured relative viability for each item. Keep answers brief.
Form field (numeric): enter value without unit.

Query: # get_value(readout='relative viability', item= CC(=O)O[C@@]12CO[C@@H]1C[C@H](O)[C@@]1(C)C(=O)[C@H](O)C3=C(C)[C@@H](OC(=O)[C@H](O)[C@@H](NC(=O)OC(C)(C)C)c4ccccc4)C[C@@](O)([C@@H](OC(=O)c4ccccc4)[C@H]21)C3(C)C [Docetaxel] + Cc1cc(Nc2cc(N3CCN(C)CC3)nc(Sc3ccc(NC(=O)C4CC4)cc3)n2)n[nH]1 [Tozasertib] (partner 0.1 µM) )
Reply: 0.634

Query: Also need CC(=O)O[C@@]12CO[C@@H]1C[C@H](O)[C@@]1(C)C(=O)[C@H](O)C3=C(C)[C@@H](OC(=O)[C@H](O)[C@@H](NC(=O)OC(C)(C)C)c4ccccc4)C[C@@](O)([C@@H](OC(=O)c4ccccc4)[C@H]21)C3(C)C [Docetaxel] + Nc1ncn([C@H]2C[C@H](O)[C@@H](CO)O2)c(=O)n1 [Decitabine] (partner 2 µM) , thanks.
Reply: 0.25

Query: Also need CC(=O)O[C@@]12CO[C@@H]1C[C@H](O)[C@@]1(C)C(=O)[C@H](O)C3=C(C)[C@@H](OC(=O)[C@H](O)[C@@H](NC(=O)OC(C)(C)C)c4ccccc4)C[C@@](O)([C@@H](OC(=O)c4ccccc4)[C@H]21)C3(C)C [Docetaxel] + CS(=O)(=O)N1CCN(Cc2cc3nc(-c4cccc5[nH]ncc45)nc(N4CCOCC4)c3s2)CC1 [Pictilisib] (partner 1 µM) , thanks.
Reply: 0.352

====

# Test system: HARA
# testName: relative viability (nuclei count vs DMSO), 5 days (fraction); higher = more cells survive
# testConditions: first compound 0.8 µM
Field 'label' (enum: 1 (yes) / 0 (no)). Set to 1 (yes) when relative viability is strictly under 0.6; else 0 (no).

Query: Strictly below 0.6: is that where relative viability of O=c1[nH]c2ccccc2n1C1CCN(CCCC(c2ccc(F)cc2)c2ccc(F)cc2)CC1 [Pimozide] + CC1(C)CCC(c2ccc(Cl)cc2)=C(CN2CCN(c3ccc(C(=O)NS(=O)(=O)c4ccc(N[C@H](CCN5CCOCC5)CSc5ccccc5)c(S(=O)(=O)C(F)(F)F)c4)cc3)CC2)C1 [Navitoclax] (partner 0.5 µM) sits?
Reply: 0 (no)

Query: Also need O=c1[nH]c2ccccc2n1C1CCN(CCCC(c2ccc(F)cc2)c2ccc(F)cc2)CC1 [Pimozide] + CC(C)C[C@H](NC(=O)[C@H](Cc1ccccc1)NC(=O)c1cnccn1)B(O)O [Bortezomib] (partner 0.002 µM) , thanks.
Reply: 0 (no)

Query: Also need O=c1[nH]c2ccccc2n1C1CCN(CCCC(c2ccc(F)cc2)c2ccc(F)cc2)CC1 [Pimozide] + CCNC(=O)c1noc(-c2cc(C(C)C)c(O)cc2O)c1-c1ccc(CN2CCOCC2)cc1 [Luminespib] (partner 0.01 µM) , thanks.
Reply: 0 (no)

Query: Also need O=c1[nH]c2ccccc2n1C1CCN(CCCC(c2ccc(F)cc2)c2ccc(F)cc2)CC1 [Pimozide] + Cc1nc(NC(=O)N2CCC[C@H]2C(N)=O)sc1-c1ccnc(C(C)(C)C(F)(F)F)c1 [Alpelisib] (partner 2 µM) , thanks.
Reply: 1 (yes)

Query: Also need Cc1cnc(-c2cnc(NCCNc3ccc(C#N)cn3)nc2-c2ccc(Cl)cc2Cl)[nH]1 + O=C(CCCCCCC(=O)Nc1ccccc1)NO [Vorinostat] (partner 1 µM) , thanks.
Reply: 1 (yes)
